Reference source for all entries: patent US20240294638A1

molecular target: T1, recombinant human NKG2C/CD94 heterodimer (extracellular domains) (human, UniProt P26717 94-231; Q13241 32-179); assay: SPR (IBIS MX96), mAb captured on anti-human IgG Fc, ECD heterodimer injected, 1:1 fit
T1 construct: extracellular domain; also called HuNKG2C/huCD94; NKG2C/CD94 ECDs
T1 sequence (P26717 94-231, chain 1 of 2): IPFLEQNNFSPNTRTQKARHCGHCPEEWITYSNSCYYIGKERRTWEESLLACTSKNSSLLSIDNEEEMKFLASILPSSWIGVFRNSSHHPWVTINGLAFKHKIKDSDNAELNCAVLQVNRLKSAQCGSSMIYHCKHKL
T1 sequence (Q13241 32-179, chain 2 of 2): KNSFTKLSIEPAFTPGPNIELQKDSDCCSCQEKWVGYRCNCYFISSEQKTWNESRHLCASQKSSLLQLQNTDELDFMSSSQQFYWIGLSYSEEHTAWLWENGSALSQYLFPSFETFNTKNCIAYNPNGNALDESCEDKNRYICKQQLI

{"columns": ["binder", "kon / M⁻¹ s⁻¹"],
 "data": [
  ["antibody 23566 (antibody, human IgG1, kappa, L234A L235A, V domains shown, Fully human IgG1-LALA (L234A/L235A), kappa; also called mAb 23566) VH: EVQLLESGGDLVQPGGSLRLSCAASGFTFDNYAMHWVRQAPGKGLEWVSTITNSGGTTYYADSVKGRFTLSRDNSKNTLYLQMNSLRAEDTAVYYCAKAHYYARGYFDFWGQGTLVTVSS VL: DIQMTQTPSSVSASVGDRVTITCRASQGISSWLAWYQQKPGKAPKLLIYAASSLQSGVPSRFSGSGSGTDFTLTISSLQPEDFATYYCQQANSFPYTFGQGTKLEIKR", 8500],
  ["antibody 23765 (antibody, human IgG1, kappa, L234A L235A, V domains shown, Fully human IgG1-LALA (L234A/L235A), kappa) VH: EVQLVESGGGLVKPGGSLRLSCAASGFTFSCCRMNWVRQAPGKGLEWVSSISSSSSYIYYADSVKGRFTISRDNAKNSLYLQMNSLRAEDTAVYYCARDGWNDVFDYWGQGTLVTVSS VL: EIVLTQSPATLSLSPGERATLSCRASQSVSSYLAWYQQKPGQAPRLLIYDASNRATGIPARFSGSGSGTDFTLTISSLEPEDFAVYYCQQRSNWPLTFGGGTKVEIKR", 2180],
  ["antibody 23925 (antibody, human IgG1, kappa, L234A L235A, V domains shown, Fully human IgG1-LALA (L234A/L235A), kappa) VH: EVQLVESGGGLVQPGGSLRLSCAASGFTFSSYAMNWVRQAPGKGLEWVSTISNSGGTTYYADSVKGRFTISRDNSKDTLYLQMNSLRAEDTAVYYCAKAHYYARGYFDYWGQGTLVTVSS VL: DIQMTQSPSSVSASVGDRVTITCRASQGISSWLAWYQQKSGKAPKLLIYAASSLQIGVPSRFSGSGSGTDFTLTISSLQPEDFATYYCQQANSFPYTFGQGTKLEIKR", 8800],
  ["antibody 23686 (antibody, human IgG1, kappa, L234A L235A, V domains shown, Fully human IgG1-LALA (L234A/L235A), kappa) VH: EVQLVESGGGLVKPGGSLRLSCAASGFTFSSYSMNWVRQAPGKGLEWVSSISSSSSYIYYADSVKGRFTISRDNAKNSLYLQMNSLRAEDTAVYYCARDEWGLLGFDSWGQGTLVTVSS VL: EIVLTQSPATLSLSPGERATLSCRASQSISNYLAWYQQKPGQAPRLLIYDASNRATGIPARFSGSGSGTDFTLTISSLEPEDFAVYYCQQRTDWPPWTFGQGTKVEIKR", 670000]
]}
